# target.of.assay: Cytochrome P450 2D6 (Homo sapiens) (UniProt P10635)
# Sequence (P10635 whole entry, looked up): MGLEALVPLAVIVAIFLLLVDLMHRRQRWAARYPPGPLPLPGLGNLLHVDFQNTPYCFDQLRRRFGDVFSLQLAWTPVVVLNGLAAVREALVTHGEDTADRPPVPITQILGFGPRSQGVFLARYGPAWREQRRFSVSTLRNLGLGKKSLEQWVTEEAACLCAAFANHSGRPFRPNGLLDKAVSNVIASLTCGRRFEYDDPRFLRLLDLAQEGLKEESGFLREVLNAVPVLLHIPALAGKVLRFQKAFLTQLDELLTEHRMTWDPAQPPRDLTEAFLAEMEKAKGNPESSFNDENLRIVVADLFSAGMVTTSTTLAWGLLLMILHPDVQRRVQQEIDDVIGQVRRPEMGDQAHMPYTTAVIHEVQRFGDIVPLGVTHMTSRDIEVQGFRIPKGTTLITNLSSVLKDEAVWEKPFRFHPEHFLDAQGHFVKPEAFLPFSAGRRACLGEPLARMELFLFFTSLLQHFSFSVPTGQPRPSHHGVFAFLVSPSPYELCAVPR
# procedure.details: Cytochrome P450 Family 2 Subfamily D Member 6 (CYP2D6) small molecule antagonists: luciferase reporter qHTS assay (AID 1671196); note: nearly all actives have a fitted effect of over 50% in size
# condition.description: P450-Glo CYP2D6 enzyme assay, luciferin luminescence, 1 h; series mostly up to 115 µM
Inconclusive results are not listed. Activity calls are given as the source filed them. Calls come from the whole dose curve; as a rule, active = well fitted inhibition curve with a large enough effect in the repeat runs; inconclusive = weak or mixed curves; inactive = no such curve, though single readings can be large or run the other way.
Outcomes: Yes for active, No for inactive

* C=CC(=O)OCC(COC(=O)C=C)(COC(=O)C=C)COC(=O)C=C | Yes
* O=C/C(Cl)=C(/Cl)C(=O)O | No
* CC1(C)[C@H](C(=O)O[C@H](C#N)c2cccc(Oc3ccccc3)c2)[C@@H]1/C=C(\Cl)C(F)(F)F | No
* O=[N+]([O-])c1cc(C(F)(F)F)c(Cl)c([N+](=O)[O-])c1Cl | No
* ClC1=C(Cl)[C@]2(Cl)[C@@H]3[C@@H](Cl)[C@H](Cl)C[C@@H]3[C@@]1(Cl)C2(Cl)Cl | No
* N#C/C=C/C#N | Yes
* N#CCCC(Br)(C#N)CBr (centres undefined) | No
* CC(=O)/C=C/c1ccc2c(c1)OCO2 | Yes
* C[C@@H]1CC[C@@]2(OC1)O[C@H]1[C@@H](O)[C@H]3[C@@H]4CC[C@H]5C[C@@H](O[C@@H]6O[C@H](CO)[C@H](O[C@@H]7O[C@H](CO)[C@@H](O)[C@H](O[C@@H]8OC[C@@H](O)[C@H](O)[C@H]8O)[C@H]7O[C@@H]7O[C@H](CO)[C@@H](O)[C@H](O[C@@H]8O[C@H](CO)[C@@H](O)[C@H](O)[C@H]8O)[C@H]7O)[C@H](O)[C@H]6O)[C@H](O)C[C@]5(C)[C@H]4CC[C@]3(C)[C@H]1[C@@H]2C | No
* FC(Cl)(Cl)Cl | No
* [Hg+2].[I-].[I-] | Yes
* NC(=O)c1ccc(N)nc1 | No
* Nc1ccc(Sc2ccc(N)cc2)cc1 | Yes
* N#Cc1ccccc1N | Yes
* O=[N+]([O-])c1ccc2ccc3cccc4ccc1c2c34 | Yes
* CC(C)OS(C)(=O)=O | Yes
* C=COCCCl | No
* C[C@H]1O[C@@H](O[C@H]2[C@@H](O)C[C@H](O[C@H]3[C@@H](O)C[C@H](O[C@H]4CC[C@@]5(C)[C@H](CC[C@@H]6[C@@H]5CC[C@]5(C)[C@@H](C7=CC(=O)OC7)CC[C@]65O)C4)O[C@@H]3C)O[C@@H]2C)C[C@H](O)[C@@H]1O | No
* Oc1cc(Cl)c(Cl)c(Cl)c1 | Yes
* Cc1ccc(C(=O)Cl)cc1 | No
* CC(Cl)CN(C)C (centres undefined) | No
* Cc1ccc(OP(=O)(Oc2ccccc2)Oc2ccccc2)cc1 | No
* CN(C)c1ccc(N=Nc2ccccc2)cc1 | Yes
* C[C@@H]1O[C@@H](O[C@@H]2C=C3CC[C@@H]4[C@H](CC[C@]5(C)[C@@H](c6ccc(=O)oc6)CC[C@]45O)[C@@]3(C)CC2)[C@H](O)[C@H](O)[C@H]1O | No

----------
# procedure.details: qHTS assay to identify small molecule agonists of the sonic hedgehog signaling (Shh) pathway - cell viability counter screen (AID 1259366); note: nearly all actives have a fitted effect of over 50% in size; note: potency is the fitted concentration of half-maximal effect
# condition.description: NIH/3T3 Gli1-Luc viability, CellTiter-Fluor, 24 h; series mostly up to 92.4 µM
Inconclusive results are not listed. Active and inactive are the calls of the source. Calls come from the whole dose curve; as a rule, active = well fitted cell-killing curve with a large enough effect in the repeat runs; inconclusive = weak or mixed curves, or effect the other way; inactive = flat fitted curve, though single readings scatter.
attribute.measured: Potency

* CCCCCCCCCCBr | inactive
* CC(C)(C)c1cc([N+](=O)[O-])cc(C(C)(C)C)c1O | inactive
* CCC[CH2][Sn]([CH2]CCC)([CH2]CCC)[O]C(=O)c1ccccc1 | 686 nM (active)
* CC[C@H]1C[C@@H]2C[C@H]3c4[nH]c5ccc(OC)cc5c4CCN(C2)[C@@H]13 | 53500 nM (active)
* C[C@]12CC[C@@H]3c4ccc(OC(=O)N(CCCl)CCCl)cc4CC[C@H]3[C@@H]1CC[C@@H]2O | inactive
* O=c1oc2ccccc2c(O)c1Cc1c(O)c2ccccc2oc1=O | inactive
* ClC(Cl)=C(c1ccc(Cl)cc1)c1ccc(Cl)cc1 | inactive
* Cc1cc(Cl)ccc1O[C@H](C)C(=O)O | inactive
* CCCSP(=O)(OCC)SCCC | inactive
* Cl/C=C\CCl | inactive
* [Cl][Sn]([c]1ccccc1)([c]1ccccc1)[c]1ccccc1 | 231 nM (active)
* Oc1c(Cl)c(Cl)cc(Cl)c1Cl | inactive
